Listed below are molecules with pIC50 for RNR (RNR1:RNR2 1:1) (Homo sapiens), each taken from published literature.
pIC50: −log10 of the molar value.

// molecule Cc1ccc(F)c([C@@H](C)[C@H](NS(=O)(=O)N2CCC(Cl)CC2)c2n[nH]c(=O)o2)c1C , assay RNR (RNR1:RNR2 1:1) (Homo sapiens), pIC50 value: 6.00 to 7.00

// molecule CC(=O)c1cc(Cl)cc2c1S(=O)(=O)N([C@H](c1n[nH]c(=O)o1)[C@H](C)c1c(F)ccc(C)c1C)CN2C , assay RNR (RNR1:RNR2 1:1) (Homo sapiens), pIC50 value: > 7.70

// molecule Cc1ccc(F)c([C@H](C)[C@H](NS(=O)(=O)N2CC(C)CC(C)C2)c2n[nH]c(=O)o2)c1C (some centres unmarked) , assay RNR (RNR1:RNR2 1:1) (Homo sapiens), pIC50 value: 5.00 to 6.00

// molecule Cc1ccc(F)c(C(C)[C@@H](c2n[nH]c(=O)o2)N2CC(C)(C)c3cc(Cl)ccc3S2(=O)=O)c1C (some centres unmarked) , assay RNR (RNR1:RNR2 1:1) (Homo sapiens), pIC50 value: 5.00 to 6.00

// molecule COc1cc(N)ccc1S(=O)(=O)N[C@H](c1n[nH]c(=O)o1)[C@H](C)c1cccc2cccc(C)c12 , assay RNR (RNR1:RNR2 1:1) (Homo sapiens), pIC50 value: 6.29

// molecule Cc1ccc(F)c([C@@H](C)[C@@H](c2n[nH]c(=O)o2)N2CN(C(=O)C3CC3)c3cc(Cl)ccc3S2(=O)=O)c1C , assay RNR (RNR1:RNR2 1:1) (Homo sapiens), pIC50 value: > 7.70

// molecule Cc1c(Cl)ccc(F)c1[C@@H](C)[C@H](NS(=O)(=O)c1ncc(Br)cc1C(N)=O)c1n[nH]c(=O)o1 , assay RNR (RNR1:RNR2 1:1) (Homo sapiens), pIC50 value: 7.15

// molecule Cc1ccc(F)c([C@H](C)[C@H](NS(=O)(=O)N2CCC3(CC2)OCCO3)c2n[nH]c(=O)o2)c1C , assay RNR (RNR1:RNR2 1:1) (Homo sapiens), pIC50 value: 6.00 to 7.00

// molecule COc1cc(Cl)ccc1S(=O)(=O)N[C@H](c1n[nH]c(=O)o1)[C@H](C)c1c(F)ccc(-c2cncc(C(=O)N3CCOCC3)c2)c1C , assay RNR (RNR1:RNR2 1:1) (Homo sapiens), pIC50 value: 6.38

// molecule Cc1ccc(F)c([C@@H](C)[C@H](NS(=O)(=O)c2ccc(Cl)cc2-c2ccno2)c2n[nH]c(=O)o2)c1C , assay RNR (RNR1:RNR2 1:1) (Homo sapiens), pIC50 value: 6.64

// molecule Cc1ccc(F)c([C@@H](C)[C@H](NS(=O)(=O)N2CCCC(C(C)O)C2)c2n[nH]c(=O)o2)c1C (mixture of isomers) , assay RNR (RNR1:RNR2 1:1) (Homo sapiens), pIC50 value: 6.00 to 7.00

// molecule Cc1ccc(F)c([C@@H](C)[C@H](NS(=O)(=O)N2CCCc3ccccc32)c2n[nH]c(=O)o2)c1C , assay RNR (RNR1:RNR2 1:1) (Homo sapiens), pIC50 value: 5.00 to 6.00

// molecule CC(=O)NC1CCN(S(=O)(=O)N[C@H](c2n[nH]c(=O)o2)C(C)c2c(F)ccc(C)c2C)CC1 (some centres unmarked) , assay RNR (RNR1:RNR2 1:1) (Homo sapiens), pIC50 value: 4.00 to 5.00

// molecule COc1ccc(-c2ccc(F)c([C@@H](C)[C@H](NS(=O)(=O)c3ccc(Cl)cc3OC)c3n[nH]c(=O)o3)c2C)cn1 , assay RNR (RNR1:RNR2 1:1) (Homo sapiens), pIC50 value: 6.59

====

Listed below are compounds with IC50 for UniProt P23921, each taken from published literature.

IC50 measured on Cc1ccc(F)c([C@H](C)[C@H](NS(=O)(=O)N2CC3CC3C2)c2n[nH]c(=O)o2)c1C (stereo partly shown) = 10 to 100 µM

IC50 measured on Cc1ccc(F)c([C@@H](C)[C@@H](c2n[nH]c(=O)o2)N2C(=O)c3cc(Cl)ccc3S2(=O)=O)c1C = 10 to 100 µM

IC50 measured on COc1cc(Cl)ccc1S(=O)(=O)N[C@H](c1noc(=O)[nH]1)[C@H](C)c1c(F)ccc(C)c1C = 0.25 µM

IC50 measured on Cc1ccc(F)c(C(C)[C@H](NS(=O)(=O)N2CCC(N3CCCC3=O)CC2)c2n[nH]c(=O)o2)c1C (stereo partly shown) = 1 to 10 µM

IC50 measured on Cc1ccc(F)c([C@@H](C)[C@@H](c2n[nH]c(=O)o2)N2CN(C)c3cc(Cl)cc(C)c3S2(=O)=O)c1C = 0.02 to 0.1 µM

IC50 measured on Cc1ccc(F)c([C@@H](C)[C@H](NS(=O)(=O)N2CC3CCCC(C3)C2)c2n[nH]c(=O)o2)c1C = 10 to 100 µM

IC50 measured on Cc1ccc(F)c(C(C)[C@H](NS(=O)(=O)N2CCC(C(F)(F)F)CC2)c2n[nH]c(=O)o2)c1C (stereo partly shown) = 1 to 10 µM

====

Listed below are compounds with IC50 for UniProt:P23921, each taken from published literature.

IC50 measured on Cc1ccc(F)c([C@H](C)[C@H](NS(=O)(=O)N2CCC(C3CCCCC3)CC2)c2n[nH]c(=O)o2)c1C = 10000 to 100000 nM

IC50 measured on CC(=O)c1cc(Cl)cc2c1S(=O)(=O)N([C@H](c1n[nH]c(=O)o1)[C@H](C)c1c(F)ccc(C)c1C)CCO2 = < 20 nM

IC50 measured on Cc1ccc(F)c(C(C)[C@H](NS(=O)(=O)N2CCC(O)(C(F)(F)F)CC2)c2n[nH]c(=O)o2)c1C (some centres unmarked) = 100 to 1000 nM

IC50 measured on C[C@H](c1cccc2c1CCC2)[C@H](NS(=O)(=O)c1ccc(Cl)c(C(C)(C)O)n1)c1n[nH]c(=O)o1 = 440 nM

IC50 measured on Cc1ccc(F)c([C@@H](C)[C@H](NS(=O)(=O)c2ccc(Cl)cc2C(=O)O)c2n[nH]c(=O)o2)c1C = 180 nM

IC50 measured on Cc1ccc(F)c([C@@H](C)[C@@H](c2n[nH]c(=O)o2)N2CN(C3CC3)c3cc(Cl)cc(C(C)Cl)c3S2(=O)=O)c1C (some centres unmarked) = 20 to 100 nM

IC50 measured on COc1ccc(-c2cc(S(=O)(=O)N[C@H](c3n[nH]c(=O)o3)[C@H](C)c3c(F)ccc(C)c3C)ccc2Cl)cc1 = 720 nM

IC50 measured on Cc1ccc(F)c([C@H](C)[C@H](NS(=O)(=O)N2CCC(Oc3ccccc3)CC2)c2n[nH]c(=O)o2)c1C = 10000 to 100000 nM

IC50 measured on Cc1ccc(F)c([C@@H](C)[C@H](NS(=O)(=O)c2ccc(Cl)c(C(=O)N3CCC4(COC4)C3)n2)c2n[nH]c(=O)o2)c1C = 130 nM

IC50 measured on CNC(=O)C1CCN(S(=O)(=O)N[C@H](c2n[nH]c(=O)o2)[C@H](C)c2c(F)ccc(C)c2C)CC1 = 1000 to 10000 nM

IC50 measured on Cc1ccc(F)c([C@@H](C)[C@H](NS(=O)(=O)N2CC(C)CC(C)C2)c2n[nH]c(=O)o2)c1C (some centres unmarked) = 1000 to 10000 nM

IC50 measured on Cc1ccc(F)c(C(C)[C@H](NS(=O)(=O)N2CC3C(C2)C3(F)F)c2n[nH]c(=O)o2)c1C (some centres unmarked) = 100 to 1000 nM

IC50 measured on Cc1ccc(F)c([C@H](C)[C@H](NS(=O)(=O)N2CCc3ccccc3C2)c2n[nH]c(=O)o2)c1C = 1000 to 10000 nM

IC50 measured on COc1cc(Cl)ccc1S(=O)(=O)N[C@H](c1n[nH]c(=O)o1)[C@H](C)c1c(F)ccc(-c2cnn(C(F)F)c2)c1C = 160 nM

====

pIC50: −log10 of the molar value.
Listed below are molecules with pIC50 for RNR (RNR1:RNR2 1:1) (Homo sapiens), each taken from published literature.

pIC50 measured on Cc1ccc(F)c([C@@H](C)[C@H](NS(=O)(=O)c2ccc(Cl)c(S(N)(=O)=O)c2)c2n[nH]c(=O)o2)c1C = 6.09

pIC50 measured on Cc1ccc(F)c([C@@H](C)[C@H](NS(=O)(=O)N2CCC(C3CCCCC3)CC2)c2n[nH]c(=O)o2)c1C = 4.00 to 5.00

pIC50 measured on COC(=O)c1cc(Cl)c(N)cc1S(=O)(=O)N[C@H](c1n[nH]c(=O)o1)[C@H](C)c1c(F)ccc(C)c1C = 6.18

pIC50 measured on Cc1ccc(F)c(C(C)[C@H](NS(=O)(=O)N2CCC3(CCOCC3)CC2)c2n[nH]c(=O)o2)c1C (some centres unmarked) = 6.00 to 7.00

pIC50 measured on COC1CCN(S(=O)(=O)N[C@H](c2n[nH]c(=O)o2)[C@H](C)c2c(F)ccc(C)c2C)CC1 = 6.00 to 7.00

pIC50 measured on COc1cc(Cl)cc2c1S(=O)(=O)N([C@H](c1n[nH]c(=O)o1)[C@H](C)c1c(F)ccc(C)c1C)C2 = 5.00 to 6.00

pIC50 measured on COCCCN1CN([C@H](c2n[nH]c(=O)o2)[C@H](C)c2c(F)ccc(C)c2C)S(=O)(=O)c2ccc(Cl)nc21 = > 7.70

pIC50 measured on Cc1ccc(F)c([C@@H](C)[C@@H](c2n[nH]c(=O)o2)N2CN([C@@H]3CCOC[C@H]3F)c3cc(Cl)ccc3S2(=O)=O)c1C = > 7.70

pIC50 measured on Cc1ccc(F)c([C@@H](C)[C@@H](c2n[nH]c(=O)o2)N2CN(C)c3cc(Cl)cnc3S2(=O)=O)c1C = 7.00 to 7.70

pIC50 measured on Cc1ccc(F)c([C@@H](C)[C@H](NS(=O)(=O)c2ccc(Cl)c(-c3cnn(C)c3)c2)c2n[nH]c(=O)o2)c1C = 6.66

pIC50 measured on Cc1ccc(F)c(C(C)[C@H](NS(=O)(=O)N2CCC(F)(F)C2)c2n[nH]c(=O)o2)c1C (some centres unmarked) = 4.00 to 5.00

pIC50 measured on Cc1ccc(F)c([C@@H](C)[C@@H](c2n[nH]c(=O)o2)N2CCOc3c(ccc(Cl)c3C(C)O)S2(=O)=O)c1C (single isomer, unassigned) = 5.00 to 6.00

pIC50 measured on Cc1ccc(F)c(C(C)[C@H](NS(=O)(=O)N2CCCC(C#N)C2)c2n[nH]c(=O)o2)c1C (some centres unmarked) = 5.00 to 6.00

pIC50 measured on Cc1ccc(F)c(C(C)[C@H](NS(=O)(=O)N2CCC(C3NC(=O)NC3=O)CC2)c2n[nH]c(=O)o2)c1C (some centres unmarked) = 6.00 to 7.00
